# experimental details: Microsomal stability in rat liver microsome assessed as clearance at 1.0 uM preincubated for 5 mins followed by NADPH addition measured upto 60 mins by LC-MS/MS analysis
# Format: ADME
# condition notes: liver microsomes, time < 65 min
property label: CLhep predicted at 1 µM

Sample records with CLhep predicted at 1 µM:
C[C@@H]1COCCN1c1cc2n(n1)C(C(C)(C)O)CNC2=O (single isomer, unassigned) ... < 6.1 mL/min/kg
C[C@@H]1COCCN1c1cc2n(n1)[C@@H]1CCC[C@@H]1NC2=O ... < 6.1 mL/min/kg
Cn1ccc(-c2ccnc(NC(=O)C3CC3)c2)cc1=O ... < 6.1 mL/min/kg
C[C@@H]1COCCN1c1cc2n(n1)[C@H](C1CC1)C(C)(C)NC2=O ... < 6.1 mL/min/kg

Q: What measured CLhep predicted at 1 µM goes with C[C@@H]1COCCN1c1cc2n(n1)[C@H](C1CCCC1)CNC2=O ?
Ans: 28 mL/min/kg

---

# experimental details: AUC in Sprague-Dawley rat at 0.5 mg/kg, iv measured upto 8 hrs by LC-MS/MS analysis
# Assay type: ADME, organism-based
# Design: dose 0.5 mg/kg, time < 8 hrs, route iv
# condition notes: in vivo
property label: AUC at 8 h (µM·h)
Write the number in µM·h without appending the unit.

Q: Tell me the measured AUC at 8 h of C[C@@H]1COCCN1c1cc2n(n1)[C@@H]1CCC[C@@H]1NC2=O , please.
Ans: 4

---

# experimental details: Oral bioavailability in Sprague-Dawley rat at 2 mg/kg measured upto 8 hrs by LC-MS/MS analysis
# Assay type: ADME, organism-based
# condition notes: in vivo
property label: bioavailability (%)
Give the quantity in %, number only.

C[C@@H]1COCCN1c1cc2n(n1)[C@@H]1CCC[C@@H]1NC2=O ... 61

We next turn to a different compound, shown below.
Q: Need bioavailability, item CC(C)[C@@H]1CNC(=O)c2cc(N3CCOC[C@H]3C)nn21
Ans: 68

---

# experimental details: Lipophilicity, logD of compound at pH 7.4 by shake flask method
# Format: physicochemical
# condition notes: buffer
Recorded logD values for a group of compounds are listed next.
Please respond with just the number, no unit label.

Recorded results for 2 compounds are shown here.
C[C@@H]1COCCN1c1cc2n(n1)[C@H](C1CCCC1)CNC2=O ... 1.6
C[C@@H]1COCCN1c1cc2n(n1)C[C@H](C(F)(F)F)NC2=O ... 1.1

Q: Which value of logD has been reported for C[C@@H]1COCCN1c1cc2n(n1)[C@@H]1CCC[C@@H]1NC2=O in the records?
Ans: 1

Q: Which logD value is on record for O=C(Nc1cc(-c2ccn3ccnc3c2)ccn1)C1CC1 ?
Ans: 2.1

Q: Field request: logD | item: O=C(Nc1cc2cc(-c3nncn3-c3ccccc3Cl)ccc2cn1)C1CC1F (stereo not drawn)
Ans: 3.1

Q: I have this compound here, C[C@@H]1COCCN1c1cc2n(n1)[C@H](C1CC1)CNC2=O , and I need its recorded logD.
Ans: 1

---

# experimental details: Microsomal stability in rat liver microsome assessed as clearance at 1.0 uM preincubated for 5 mins followed by NADPH addition measured upto 60 mins by LC-MS/MS analysis
# Type: ADME
# condition notes: liver microsomes, time < 65 min
Each record here notes measured CLhep predicted at 1 µM.
Kindly provide the numeric value in L/h/kg only, without the unit symbol.

For orientation, consider the following solved cases.
CC(C)[C@@H]1CNC(=O)c2cc(N3CCOC[C@H]3C)nn21 ... 0.72
C[C@@H]1COCCN1c1cc2n(n1)[C@H](C1CCC1)CNC2=O ... 1.38

Q: Dear colleague, I am looking for the recorded CLhep predicted at 1 µM of the following molecule: C[C@@H]1COCCN1c1cc2n(n1)[C@H](C(C)(C)C)CNC2=O
Ans: 1.44

Q: Could you share which CLhep predicted at 1 µM value was measured for C[C@@H]1COCCN1c1cc2n(n1)[C@H](C(F)(F)F)CNC2=O ?
Ans: 0.51

Q: Item NC(=O)c1ccccc1Nc1ccnc(NC(=O)C2CC2)c1 has what recorded CLhep predicted at 1 µM?
Ans: 0.9

---

# experimental details: Microsomal stability in human liver microsome assessed as clearance at 1.0 uM preincubated for 5 mins followed by NADPH addition measured upto 60 mins by LC-MS/MS analysis
# Format: ADME
# condition notes: liver microsomes, time < 65 min
property label: CLhep predicted at 1 µM

Q: So what does the record say about CLhep predicted at 1 µM for C[C@@H]1COCCN1c1cc2n(n1)[C@H](C1CC1)CNC2=O ?
Ans: < 3.9 mL/min/kg

Q: Request the reported CLhep predicted at 1 µM associated with C[C@@H]1CNC(=O)c2cc(-c3ccnc(NC(=O)C4CC4)c3)nn21
Ans: < 3.9 mL/min/kg

Q: Look at this compound and give its reported CLhep predicted at 1 µM. CC(C)[C@@H]1CNC(=O)c2cc(N3CCOCC3)nn21
Ans: < 3.9 mL/min/kg

Q: Would you mind telling me what CLhep predicted at 1 µM value was observed for Cc1cnc(NC(=O)C2CC2)cc1-c1cc2n(n1)[C@H](C(C)C)CNC2=O ?
Ans: 11 mL/min/kg

Q: Request the reported CLhep predicted at 1 µM associated with Cn1ccc(-c2ccnc(NC(=O)C3CC3)c2)cc1=O
Ans: 6.4 mL/min/kg

Q: What value of CLhep predicted at 1 µM has been recorded for this entry: C[C@@H]1COCCN1c1cc2n(n1)C(C(C)(C)O)CNC2=O (single isomer, unassigned)
Ans: < 3.9 mL/min/kg

Q: Look up CLhep predicted at 1 µM for this compound: C[C@@H]1COCCN1c1cc2n(n1)[C@H](C1CC1)[C@H](C1CC1)NC2=O
Ans: < 3.9 mL/min/kg

Q: Given O=C(Nc1cc(-n2cnc3ccccc32)ccn1)C1CC1 , state its recorded CLhep predicted at 1 µM.
Ans: 19 mL/min/kg

Q: Which CLhep predicted at 1 µM is reported for this compound? C[C@@H]1COCCN1c1cc2n(n1)[C@H](C1CC1)C1(CC1)NC2=O
Ans: < 3.9 mL/min/kg

Q: Sample C[C@@H]1COCCN1c1cc2n(n1)[C@H](C(F)(F)F)CNC2=O — what was its CLhep predicted at 1 µM?
Ans: < 3.9 mL/min/kg

Q: Please look up its CLhep predicted at 1 µM: C[C@@H]1COCCN1c1cc2n(n1)[C@H](C1CCC1)CNC2=O
Ans: < 3.9 mL/min/kg

---

# experimental details: Lipophilicity, logD of compound at pH 7.4 by shake flask method
# Type: physicochemical
# condition notes: buffer
property label: logD
Answer with the value's number alone.

C[C@@H]1COCCN1c1cc2n(n1)[C@H](C1CC1)C1(CC1)NC2=O ... 1.6
CC(C)[C@@H]1CNC(=O)c2cc(-c3ccnc(NC(=O)C4CC4)c3)nn21 ... 2.4
NC(=O)c1ccccc1Nc1ccnc(NC(=O)C2CC2)c1 ... 1.8
C[C@@H]1COCCN1c1cc2n(n1)[C@H](C1CC1)C(C)(C)NC2=O ... 1.5
C[C@@H]1COCCN1c1cc2n(n1)[C@H](C1CC1)[C@H](C1CC1)NC2=O ... 1.7
C[C@@H]1COCCN1c1cc2n(n1)[C@H](C(F)(F)F)CNC2=O ... 0.8

Kindly review the next compound as well.
Q: Give its logD value. Item: Cc1cnc(NC(=O)C2CC2)cc1-c1cc2n(n1)[C@H](C(C)C)CNC2=O
Ans: 2.5

---

# experimental details: Microsomal stability in rat liver microsome assessed as clearance at 1.0 uM preincubated for 5 mins followed by NADPH addition measured upto 60 mins by LC-MS/MS analysis
# Type: ADME
# condition notes: liver microsomes, time < 65 min
property label: CLhep predicted at 1 µM

Consider the worked cases shown below.
C[C@@H]1COCCN1c1cc2n(n1)C[C@H](C(F)(F)F)NC2=O ... < 6.1 mL/min/kg
C[C@@H]1CNC(=O)c2cc(-c3ccnc(NC(=O)C4CC4)c3)nn21 ... < 6.1 mL/min/kg

# input for lookup
Q: Name the recorded CLhep predicted at 1 µM for C[C@@H]1COCCN1c1cc2n(n1)[C@H](C1CC1)[C@H](C1CC1)NC2=O .
Ans: < 6.1 mL/min/kg

---

# experimental details: Microsomal stability in human liver microsome assessed as clearance at 1.0 uM preincubated for 5 mins followed by NADPH addition measured upto 60 mins by LC-MS/MS analysis
# Format: ADME
# condition notes: liver microsomes, time < 65 min
property label: CLhep predicted at 1 µM (mL/min/kg)
Lab book: enter the figure in mL/min/kg, no units written.

O=C(Nc1cc(-c2ccn3ccnc3c2)ccn1)C1CC1 ... 17

Q: Entry O=C(Nc1cc2cc(-c3nncn3-c3ccccc3Cl)ccc2cn1)C1CC1F (stereo unspecified) has what CLhep predicted at 1 µM?
Ans: 12

Q: Which CLhep predicted at 1 µM value is on record for C[C@@H]1COCCN1c1cc2n(n1)[C@H](C(C)(C)C)CNC2=O ?
Ans: 4.7
